FYI, the data here is from PubChem BioAssay (NCI).

test system: OVCAR-3 ovarian; assay: NCI tumour cell line growth inhibition, 48 h
Where TGI equals or exceeds 10 µM, the correct label is Fulfilled; where it does not, the label is Not fulfilled.

Molecular string: N[C@@H]1CCCN(c2c(/C=C3\SC(=O)NC3=O)cccc2-c2ccccc2)C1
Label: Fulfilled
//
Molecular string: COc1cc(-c2cc(=O)c3cc(C)c(C)c(C(=O)O)c3o2)cc(OC)c1OC
Label: Fulfilled
//
Molecular string: O=[N+]([O-])c1ccc(Sc2c3ccccc3nc3ccccc23)nc1
Label: Fulfilled
//
Molecular string: CCCCS(=O)(=O)Nc1ccc(Nc2c3ccccc3nc3ccccc23)c(OC)c1
Label: Fulfilled
//
Molecular string: NC(=O)NC(=O)c1cccc(NC(=O)CBr)c1
Label: Not fulfilled
//
Molecular string: C=C1C(=O)O[C@H]2[C@H]1CC/C(COC(=O)c1ccc(C#N)cc1)=C\CC[C@@]1(C)O[C@@H]21
Label: Not fulfilled
//
Molecular string: O=C(c1ccccc1)c1sc2c(=O)c(C(=O)c3ccccc3)c(C(=O)c3ccccc3)sc2c(=O)c1C(=O)c1ccccc1
Label: Fulfilled
//
Molecular string: COc1cnc2c(c1)C(=O)c1c-2n(CCCN2CCCC2)c(=O)c2cc(F)ccc12
Label: Not fulfilled
//
Molecular string: COc1ccc2c(c1)[n+](=O)c(C(=O)/C=C/c1cc(OC)c(OC)c(OC)c1)c(C)n2[O-]
Label: Fulfilled

====

test system: KM12 colon; experiment: NCI tumour cell line growth inhibition, 48 h
Recorded TGI by entry

Molecular string: CCOC(=O)/C=C(/C(=O)OCC)n1ccc(=O)n(/C(=C/C(=O)OCC)C(=O)OCC)c1=O
TGI: 33.9 µM

Molecular string: Cc1c2c(n(CCN(C)C)c1C)NN=C(C#N)S2(=O)=O
TGI: > 100 µM

Molecular string: COc1cc2c(cc1OCc1ccccc1)NC(=S)[C@@H]1CCCN1C2=S
TGI: > 100 µM

Molecular string: CCOC(=O)c1cnc(-n2[nH]c3c(c2=O)CCCC3)[nH]c1=O
TGI: > 100 µM

Molecular string: CCCCn1sc(=O)n(Cc2ccc(CNC(=O)OCc3ccc4c(Br)cc(Br)c(O)c4n3)cc2)c1=O
TGI: > 24.4 µM

====

test system: T-47D breast; experiment: NCI tumour cell line growth inhibition, 48 h
Readout type: TGI

Compound: COc1ccc(-c2c(-c3cc(OC)c4c(c3)OCO4)noc2N)cc1
Readout type: TGI
Experimental value: 47.1 µM
//
Compound: CCCCn1sc(=O)n(Cc2ccc(CNC(=O)OCc3ccc4c(Br)cc(Br)c(O)c4n3)cc2)c1=O
Readout type: TGI
Experimental value: > 100 µM
//
Compound: COc1ccc(-c2cc(=O)c3c(O)cc(C)cc3o2)cc1OC
Readout type: TGI
Experimental value: > 100 µM
//
Compound: CNC1C(O)C(OC2C(N)CC(N)C(OC3OC(C(C)O)C(O)C(O)C3N)C2O)OCC1(C)O (stereo not given)
Readout type: TGI
Experimental value: > 100 µM
//
Compound: C=CCNC1=C2C[C@@H](C)C[C@@H](OC)[C@H](OC(=O)CN)[C@H](C)/C=C(\C)[C@@H](OC(N)=O)[C@H](OC)/C=C\C=C(/C)C(=O)NC(=CC1=O)C2=O
Readout type: TGI
Experimental value: > 25.5 µM
//
Compound: c1ccc(C[n+]2cccc(-c3cc4ccccc4[nH]3)c2)cc1
Readout type: TGI
Experimental value: > 100 µM
//
Compound: Cc1c2c(n(CCN(C)C)c1C)NN=C(C#N)S2(=O)=O
Readout type: TGI
Experimental value: > 100 µM
//
Compound: Nc1nnc(Cn2c(-c3ccccc3)nc3ccc(Br)cc3c2=O)s1
Readout type: TGI
Experimental value: > 100 µM
//
Compound: CCCCC#CC#Cc1cccc(=O)o1
Readout type: TGI
Experimental value: 25.7 µM
//
Compound: COc1ccc(-c2csc(-c3cc(Cl)cc(Cl)c3Cl)n2)cc1
Readout type: TGI
Experimental value: > 100 µM
